# tested system: Human EGF receptor tyrosine kinase (Homo sapiens)
# Construct: isolated from A431 human epidermoid carcinoma cells which overexpress EGF receptor; endogenous in cells; host or cells: A431 human epidermoid carcinoma cells; purified from the lysate on wheat germ agglutinin sepharose
# Sequence (P00533 25-1210): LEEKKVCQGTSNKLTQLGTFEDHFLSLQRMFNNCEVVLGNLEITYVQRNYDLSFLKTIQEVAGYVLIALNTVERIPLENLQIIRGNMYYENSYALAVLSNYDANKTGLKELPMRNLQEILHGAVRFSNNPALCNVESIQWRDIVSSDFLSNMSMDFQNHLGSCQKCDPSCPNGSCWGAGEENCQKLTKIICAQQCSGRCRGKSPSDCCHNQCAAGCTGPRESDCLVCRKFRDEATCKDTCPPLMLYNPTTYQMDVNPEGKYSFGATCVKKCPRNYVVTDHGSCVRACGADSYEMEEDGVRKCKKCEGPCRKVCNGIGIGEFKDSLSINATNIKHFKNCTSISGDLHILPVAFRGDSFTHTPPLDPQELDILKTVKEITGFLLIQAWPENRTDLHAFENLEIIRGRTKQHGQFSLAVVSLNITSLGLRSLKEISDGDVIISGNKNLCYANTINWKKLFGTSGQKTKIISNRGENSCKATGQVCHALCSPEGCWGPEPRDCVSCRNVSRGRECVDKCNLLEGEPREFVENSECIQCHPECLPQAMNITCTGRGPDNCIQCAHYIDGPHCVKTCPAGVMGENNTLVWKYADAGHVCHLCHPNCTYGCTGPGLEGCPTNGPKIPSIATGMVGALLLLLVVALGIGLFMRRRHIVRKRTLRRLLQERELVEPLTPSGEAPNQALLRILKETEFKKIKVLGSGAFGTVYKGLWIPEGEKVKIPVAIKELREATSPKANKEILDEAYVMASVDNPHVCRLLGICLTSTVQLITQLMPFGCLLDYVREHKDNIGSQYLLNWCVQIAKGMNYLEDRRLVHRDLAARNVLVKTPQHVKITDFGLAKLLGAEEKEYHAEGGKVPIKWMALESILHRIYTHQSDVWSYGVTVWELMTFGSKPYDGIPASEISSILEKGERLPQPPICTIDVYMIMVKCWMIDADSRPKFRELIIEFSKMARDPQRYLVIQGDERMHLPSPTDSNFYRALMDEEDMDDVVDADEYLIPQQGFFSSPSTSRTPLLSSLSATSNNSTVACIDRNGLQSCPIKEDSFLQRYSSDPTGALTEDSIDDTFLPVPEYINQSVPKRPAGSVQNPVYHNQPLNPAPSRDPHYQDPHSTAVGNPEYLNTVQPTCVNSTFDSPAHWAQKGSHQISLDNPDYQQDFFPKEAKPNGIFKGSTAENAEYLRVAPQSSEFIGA
# assay details: EGF receptor tyrosine kinase inhibition (phosphorylation of PLC-gamma 1 derived peptide)
# Type: biochemical
# test settings: Table 1, values in nM; read-out: EGF Receptor Tyrosine Kinase Inhibition IC50
Okay, here is how we bin by IC50: LOW = under 40 nM, MEDIUM = from 40 nM up to 200 nM, HIGH = 200 nM and over

| compound | class assignment |
| --- | --- |
| COc1ccc2c(Nc3cccc(Br)c3)ncnc2n1 | HIGH |
| Nc1ccc(Nc2ncnc3cc(N)ncc23)cc1 | MEDIUM |
| Nc1cc2ncnc(Nc3cccc(Cl)c3)c2cn1 | MEDIUM |
| Nc1cc2ncnc(Nc3ccc(Cl)c(Cl)c3)c2cn1 | HIGH |
| c1ccc(Nc2ncnc3cnccc23)cc1 [Example 55, 4-Anilinopyrido[3,4-d]pyrimidine] | HIGH |
| CN(C)c1ccc2ncnc(Nc3cccc(Br)c3)c2n1 | LOW |
| Nc1cc2ncnc(Nc3cccc(Br)c3)c2cn1 | LOW |
| Fc1cc2ncnc(Nc3cccc(Br)c3)c2cn1 | LOW |
| Nc1cc2ncnc(Nc3cccc(I)c3)c2cn1 | HIGH |
| Brc1cccc(Nc2ncnc3cnc(N4CCCCC4)cc23)c1 | LOW |
| Nc1cc2ncnc(Nc3ccccc3Br)c2cn1 | HIGH |
| Nc1cc2ncnc(Nc3cccc(F)c3)c2cn1 | HIGH |
| Fc1ccc2c(Nc3cccc(Br)c3)ncnc2n1 | LOW |
| Nc1cc2ncnc(NCc3ccccc3N)c2cn1 | HIGH |
| Brc1cccc(Nc2ncnc3cnccc23)c1 | MEDIUM |
| Fc1ccc2ncnc(Nc3cccc(Br)c3)c2n1 | HIGH |
| Nc1ccc2ncnc(Nc3cccc(Br)c3)c2n1 | LOW |
| C[C@@H](Nc1ncnc2cc(N)ncc12)c1ccccc1 | HIGH |
| CNc1ccc2ncnc(Nc3cccc(Br)c3)c2n1 | LOW |

The measurements presented in this section are drawn from patent US6521620B1.
